test: Bone powder binding, fluorometric detection; conditions: 1 mg/ml compound, bone meal powder 10 mg/ml in PBS, 37° C., 1 h
Assign Binding to bone (%) Fluorescence to each entry below.
Give the value in % but do not write % after it.

Fill in Binding to bone (%) Fluorescence for record COc1c(N2CCNC(C)C2)c(F)cc2c(=O)c(C(=O)OCC(=O)NC(P(=O)(O)O)P(=O)(O)O)cn(C3CC3)c12 (stereo not drawn) [Compound 54]
91

Fill in Binding to bone (%) Fluorescence for record O=C(O)c1cn(C2CC2)c2cc(N3CCNCC3)c(F)cc2c1=O [Compound 6, Ciprofloxacin, reference compound]
0

Fill in Binding to bone (%) Fluorescence for record COc1c(N2CCN(Cc3oc(=O)oc3-c3ccc(P(=O)(O)CP(=O)(O)O)cc3)C(C)C2)c(F)cc2c(=O)c(C(=O)O)cn(C3CC3)c12 (stereo not drawn) [Compound 129]
63.7

Fill in Binding to bone (%) Fluorescence for record COc1c(N2C[C@@H]3CCCN[C@@H]3C2)c(F)cc2c(=O)c(C(=O)O)cn(C3CC3)c12 [Compound 3, Moxifloxacin, reference compound]
0

Fill in Binding to bone (%) Fluorescence for record COc1c(N2C[C@@H]3CCCN[C@@H]3C2)c(F)cc2c(=O)c(C(=O)SCC(=O)NC(P(=O)(O)O)P(=O)(O)O)cn(C3CC3)c12 [Compound 99]
99.0

Fill in Binding to bone (%) Fluorescence for record COc1c(N2C[C@@H]3CCCN[C@@H]3C2)c(F)cc2c(=O)c(C(=O)OCC(=O)N(C)C(P(=O)(O)O)P(=O)(O)O)cn(C3CC3)c12 [Compound 80]
97.3

Data origin: patent US20080287396A1
